// reported pKd for each item listed
- target_desc: T1, Rat RGMa (rat) (UniProt D4A188)
- T1 sequence: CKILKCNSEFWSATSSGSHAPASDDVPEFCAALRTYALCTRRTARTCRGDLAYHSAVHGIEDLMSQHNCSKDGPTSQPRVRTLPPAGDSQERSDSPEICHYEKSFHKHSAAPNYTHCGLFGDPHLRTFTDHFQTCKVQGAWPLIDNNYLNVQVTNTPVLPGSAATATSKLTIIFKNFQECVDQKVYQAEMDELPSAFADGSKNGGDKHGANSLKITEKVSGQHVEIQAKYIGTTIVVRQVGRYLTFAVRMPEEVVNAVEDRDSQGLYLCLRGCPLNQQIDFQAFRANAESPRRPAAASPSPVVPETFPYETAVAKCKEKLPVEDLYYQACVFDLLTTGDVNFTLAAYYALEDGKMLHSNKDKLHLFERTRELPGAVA
- protocol: BIAcore; Ab captured via anti-hIgG Fc on CM5 chip, antigen injected; 1:1 Langmuir fit
Quick note: pKd values are minus log10 of concentrations in mol/L.

1. RGMA-h5F9pJP302/pJP303 hIgG1/K mut (antibody, V domains shown, Tested as IgG; also called h5F9.AM11; H5F9AM.11) VH: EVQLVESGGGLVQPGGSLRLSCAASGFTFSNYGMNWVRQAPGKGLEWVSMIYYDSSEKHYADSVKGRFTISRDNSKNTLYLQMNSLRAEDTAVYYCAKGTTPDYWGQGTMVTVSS VL: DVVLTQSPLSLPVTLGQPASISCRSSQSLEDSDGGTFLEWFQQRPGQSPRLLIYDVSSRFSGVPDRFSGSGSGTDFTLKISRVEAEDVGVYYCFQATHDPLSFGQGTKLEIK    10.13
2. RGMA-h5F9pJP297/pJP299 hIgG1/K mut (antibody, V domains shown, Tested as IgG; also called h5F9.AM9; H5F9AM.9) VH: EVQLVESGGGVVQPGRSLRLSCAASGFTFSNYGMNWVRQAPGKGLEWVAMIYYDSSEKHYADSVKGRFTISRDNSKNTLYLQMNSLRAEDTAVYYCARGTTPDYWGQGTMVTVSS VL: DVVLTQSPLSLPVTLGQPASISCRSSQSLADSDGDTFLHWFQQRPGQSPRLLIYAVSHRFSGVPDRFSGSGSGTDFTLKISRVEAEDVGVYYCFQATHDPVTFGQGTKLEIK    9.51

Continue with the next binder.
Prompt line: For the binder humanized antibody 5F9.23 (antibody, V domains shown, also called h5F9.23; H5F9.23) VH: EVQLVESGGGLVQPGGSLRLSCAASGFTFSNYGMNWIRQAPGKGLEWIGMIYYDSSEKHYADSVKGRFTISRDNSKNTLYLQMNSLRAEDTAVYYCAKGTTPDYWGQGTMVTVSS VL: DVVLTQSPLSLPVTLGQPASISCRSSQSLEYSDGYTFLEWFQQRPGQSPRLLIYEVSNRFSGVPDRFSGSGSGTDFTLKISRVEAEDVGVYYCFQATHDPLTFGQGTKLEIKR , give its reported pKd.
Response line: 8.68
